- Measured target: T1, human IL-4Rα (human, UniProt P24394 26-232)
- T1 construct: also called Hu IL-4Rα; hIL-4Rα
- T1 sequence: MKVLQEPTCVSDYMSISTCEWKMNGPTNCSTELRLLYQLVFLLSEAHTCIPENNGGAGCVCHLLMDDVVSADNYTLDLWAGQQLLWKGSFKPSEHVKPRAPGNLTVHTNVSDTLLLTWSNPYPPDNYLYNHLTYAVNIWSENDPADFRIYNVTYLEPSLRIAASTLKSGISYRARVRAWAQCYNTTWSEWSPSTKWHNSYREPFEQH
- Procedure details: SPR, Carterra LSA;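 further: antibodies captured on an anti-human Fc sensor chip, antigen injected at several concentrations, association and dissociation rates fitted with a 1:1 Langmuir model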
For each of the binders below, state its KD Relative to Dupilumab.

Construct 44 (mAb485) (antibody, IgG4, V domains shown, VH/VL only) VH: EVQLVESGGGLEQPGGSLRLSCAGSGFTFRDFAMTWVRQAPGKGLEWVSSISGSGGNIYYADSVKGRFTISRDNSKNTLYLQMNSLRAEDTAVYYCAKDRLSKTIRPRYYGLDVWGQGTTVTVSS VL: DIVMTQSPLSLPVTPGEPASISCRSTQSLLYSIGKNYVDWYLQKSGQSPQLLIYEGNNRASGVPDRFSGSGSGTDFTLKISRVEAEDVGFYYCMQSLTSPYTFGQGTKLEIK	1.11
Construct 38 (mAb471) (antibody, IgG4, V domains shown, VH/VL only) VH: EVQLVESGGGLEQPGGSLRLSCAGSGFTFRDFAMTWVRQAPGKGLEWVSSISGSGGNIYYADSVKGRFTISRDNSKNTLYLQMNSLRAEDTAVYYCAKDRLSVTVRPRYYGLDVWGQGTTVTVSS VL: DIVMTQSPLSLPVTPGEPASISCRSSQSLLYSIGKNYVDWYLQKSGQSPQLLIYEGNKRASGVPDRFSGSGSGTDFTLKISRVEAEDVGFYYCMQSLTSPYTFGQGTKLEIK	0.52

Request: Give the measured KD Relative to Dupilumab of Construct 23 (mAb431) (antibody, V domains shown, VH/VL only) VH: EVQLVESGGGLEQPGGSLRLSCAGSGFTFRDFAMTWVRQAPGKGLEWVSSISGGGGSTYYADSVKGRFTISRDNSKNTLYLQMNSLRAEDTAVYYCAKDRLSVTVRPRYYGLDVWGQGTTVTVSS VL: DIVMTQSPLSLPVTPGEPASISCRSSQSVLYSIGKNYVDWYLQKSGQSPQLLIYLGSQRATGVPDRFSGSGSGTDFTLKISRVEAEDVGFYYCMQSLTSPYTFGQGTKLEIK .
Response: 0.67

src = patent US20260193366A1
